The reported numbers originate from ChEMBL document CHEMBL1154453.

target: Aldo-keto reductase family 1 member B1 (Rattus norvegicus); experiment: Inhibition of aldose reductase in Albino rat kidney assessed as decrease in NADPH concentration by spectrophotometrically
property-label: inhibition (%)

Below, 5 molecules whose answers are already recorded.
* Cc1ccc2occ(/C=C3/SC(=O)N(CC(=O)O)C3=O)c(=O)c2c1 | 61.2
* Cc1cc(C)c2occ(/C=C3/SC(=O)N(CC(=O)O)C3=O)c(=O)c2c1 | 68.6
* CCOC(=O)CN1C(=O)S/C(=C/c2coc3c(C)cc(C)cc3c2=O)C1=O | 0
* CC(C)c1ccc2occ(/C=C3/SC(=O)NC3=O)c(=O)c2c1 | 50.8
* O=C1NC(=O)/C(=C\c2coc3ccccc3c2=O)S1 | 42.4

a: CCOC(=O)CN1C(=O)S/C(=C/c2coc3ccc(C(C)C)cc3c2=O)C1=O
b: CC(C)c1ccc2occ(/C=C3/SC(=O)N(CC(=O)O)C3=O)c(=O)c2c1
Incoming: Which value of inhibition is greater, the one for a or the one for b ? Mark your answer with the label of the selected entry.
Outgoing: b

---

molecular target: Aldo-keto reductase family 1 member B1 (Rattus norvegicus) (UniProt P07943); experiment: Inhibition of aldose reductase in Albino rat kidney assessed as decrease in NADPH concentration by spectrophotometrically
property-label: inhibition (%)

Some entries whose results are on file:
* CCOC(=O)CN1C(=O)S/C(=C/c2coc3ccccc3c2=O)C1=O | 8.18
* CCOC(=O)CN1C(=O)S/C(=C/c2coc3ccc(C)cc3c2=O)C1=O | 0

P: O=C1NC(=O)/C(=C\c2coc3ccc([N+](=O)[O-])cc3c2=O)S1
Q: O=C(O)CN1C(=O)S/C(=C/c2coc3ccc([N+](=O)[O-])cc3c2=O)C1=O
Incoming: Larger number for inhibition: P , or Q ? Refer to your chosen entry by its label in the reply.
Outgoing: Q
(Q: 82.4%, P: 46.7%)

---

biological target: Aldo-keto reductase family 1 member B1 (Rattus norvegicus, UniProt P07943)
pIC50: −log10 of the molar value.
property-label: pIC50

I: O=C(O)CN1C(=O)S/C(=C/c2coc3ccc([N+](=O)[O-])cc3c2=O)C1=O
II: Cc1ccc2occ(/C=C3/SC(=O)NC3=O)c(=O)c2c1
Incoming: Hi team, can someone confirm which has the larger pIC50: I or II ? Thanks. Identify your pick by its label.
Outgoing: I
(I: 6.58, II: 6.03)
